Values were extracted from PubChem BioAssay (NCI).

Test system: UACC-257 melanoma
measurement notes: NCI tumour cell line growth inhibition, 48 h

| compound | TGI |
| --- | --- |
| CSC(=NC#N)S/C=C/C(=O)c1ccc(Cl)cc1 | 52.2 µM |
| CC1=C(c2cc(C(=O)Nc3cc(C)ccc3C)nc(N)n2)Sc2ccccc2N1 | > 100 µM |
| Cc1nc(N)nn1C1OCC(O)C(O)C1O (stereo unspecified) | > 100 µM |
| CC(=O)NC(CC(C)C)C(=O)NC(CC(C)C)C(=O)NC(C=O)CCCN=C(N)N (stereo unspecified) | > 100 µM |
| C/C(=N\NC(=O)c1ccncc1)c1ccccc1Cl | > 100 µM |
| COc1cc2c(oc(=O)c3cc(C)cc(OC)c32)c2c(C3OC(C)C(O)C(C)(O)C3O)ccc(O)c12 (stereo unspecified) | 1.62 µM |

====

Quick list: TGI per entry.
Test system: ACHN renal
measurement notes: NCI tumour cell line growth inhibition, 48 h

| cpd smiles | TGI |
| --- | --- |
| Nn1c2c(c3ccccc3c1=O)C(=O)c1ccccc1-2 | > 50 µM |
| CCOC(=O)c1cn2c(n1)sc1cc(C)c(C)cc12 | 35.3 µM |
| CC1=C(c2cc(C(=O)Nc3cc(C)ccc3C)nc(N)n2)Sc2ccccc2N1 | > 100 µM |

====

System: M19-MEL melanoma
measurement notes: NCI tumour cell line growth inhibition, 48 h
Quick list: TGI per entry.
value kind: TGI

| molecule | observed measurement |
| --- | --- |
| O=C(/C=C/c1ccc(Br)cc1)c1ccc(NCc2nc3ccccc3[nH]2)cc1 | > 100 µM |
| CN1c2ccccc2NC(CC(=O)O)C2CC=CN21 (stereo unspecified) | > 100 µM |
| CCOC(=O)C1=C(OC(OCC)C(C)[Se]c2ccccc2)CCC1 (stereo unspecified) | 38.9 µM |
| CO/C(=N\N=Cc1ccccc1)c1ccncc1 | > 100 µM |
| COc1ccc(/C=c2/sc3n(c2=O)NC2(CCCCC2)NN=3)cc1 | > 100 µM |
| CCCCCCCCCCn1cccc1/C=C/c1ccc(/C=C/c2cccn2CCCCCCCCCC)cc1 | > 100 µM |
| CCOP(=O)(OCC)/C(C#N)=C\c1ccc(OC(C)=O)cc1 | > 100 µM |
| Cc1cc(O)c(C=O)c(C)c1CCC1(C)C=Cc2cc(O)ccc2O1 (stereo unspecified) | > 100 µM |
| NCCc1ccc2oc3cc(=O)c4ccccc4c-3nc2c1 | 0.894 µM |
| CC(=O)OCC1(C)C(OC(C)=O)CCC2(C)C(CC(OC(C)=O)C3=CCOC3=O)C(O)(CO)CCC12 (stereo unspecified) | > 100 µM |
| O=C(O)C1=CN=C(C(=O)O)NN1 | > 100 µM |

====

Test system: SF-268 CNS
measurement notes: NCI tumour cell line growth inhibition, 48 h
Quick list: GI50 per entry.

| molecule | GI50 |
| --- | --- |
| O=c1ccc2nc(C(F)(F)F)nn(-c3ccccc3)c-2c1 | 15 µM |
| O=Cc1cn(Cc2ccc(Cl)cc2)c2ccccc12 | 21.4 µM |
| C(=C1c2ccccc2-c2ccccc21)c1ccncc1 | 6.39 µM |
| C=C1C(=O)O[C@H]2[C@H]1CC/C(COC(=O)/C=C\C(=O)NCc1ccc(Cn3c(=O)sn(CCCI)c3=O)cc1)=C\CC[C@@]1(C)O[C@@H]21 | 0.74 µM |
| CN(C)CCCNCc1ccc(-c2ccc(F)c(Cl)c2)o1 | 12.1 µM |
| Oc1cccc(-c2nc(-c3n[nH]c(=S)n3-c3ccccc3)cc3c2[nH]c2ccccc23)c1 | 3.56 µM |
| COc1cc2c(cc1OCc1ccccc1)N=CC1C[C@@H](O)CN1C2=O (stereo partly drawn) | 3.41 µM |
| CC(=O)OC1Oc2ccccc2-c2oc(=O)c(-c3ccc(F)cc3)cc21 (stereo not drawn) | 29.6 µM |
